Molecular target: plasma purified human complement protein C3 (human) (UniProt P01024)
Sequence (P01024 23-667, chain 1 of 2): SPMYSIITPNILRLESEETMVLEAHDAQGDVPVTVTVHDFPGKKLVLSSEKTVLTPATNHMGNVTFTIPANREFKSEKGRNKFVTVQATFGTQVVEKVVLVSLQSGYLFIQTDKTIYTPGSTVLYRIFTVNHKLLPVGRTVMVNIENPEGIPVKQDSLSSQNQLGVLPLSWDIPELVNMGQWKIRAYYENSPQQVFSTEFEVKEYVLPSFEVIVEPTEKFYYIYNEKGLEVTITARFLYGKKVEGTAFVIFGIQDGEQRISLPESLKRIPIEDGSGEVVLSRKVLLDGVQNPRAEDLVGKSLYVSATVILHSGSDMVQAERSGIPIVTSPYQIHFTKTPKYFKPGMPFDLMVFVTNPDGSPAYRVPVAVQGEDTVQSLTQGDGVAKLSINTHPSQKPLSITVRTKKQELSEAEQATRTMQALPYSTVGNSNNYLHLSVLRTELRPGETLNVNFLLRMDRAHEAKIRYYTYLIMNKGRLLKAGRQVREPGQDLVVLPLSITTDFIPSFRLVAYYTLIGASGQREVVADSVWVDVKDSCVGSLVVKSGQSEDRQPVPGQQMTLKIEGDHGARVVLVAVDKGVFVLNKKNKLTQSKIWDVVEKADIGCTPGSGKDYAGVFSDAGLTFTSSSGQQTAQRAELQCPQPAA
Sequence (P01024 672-1663, chain 2 of 2): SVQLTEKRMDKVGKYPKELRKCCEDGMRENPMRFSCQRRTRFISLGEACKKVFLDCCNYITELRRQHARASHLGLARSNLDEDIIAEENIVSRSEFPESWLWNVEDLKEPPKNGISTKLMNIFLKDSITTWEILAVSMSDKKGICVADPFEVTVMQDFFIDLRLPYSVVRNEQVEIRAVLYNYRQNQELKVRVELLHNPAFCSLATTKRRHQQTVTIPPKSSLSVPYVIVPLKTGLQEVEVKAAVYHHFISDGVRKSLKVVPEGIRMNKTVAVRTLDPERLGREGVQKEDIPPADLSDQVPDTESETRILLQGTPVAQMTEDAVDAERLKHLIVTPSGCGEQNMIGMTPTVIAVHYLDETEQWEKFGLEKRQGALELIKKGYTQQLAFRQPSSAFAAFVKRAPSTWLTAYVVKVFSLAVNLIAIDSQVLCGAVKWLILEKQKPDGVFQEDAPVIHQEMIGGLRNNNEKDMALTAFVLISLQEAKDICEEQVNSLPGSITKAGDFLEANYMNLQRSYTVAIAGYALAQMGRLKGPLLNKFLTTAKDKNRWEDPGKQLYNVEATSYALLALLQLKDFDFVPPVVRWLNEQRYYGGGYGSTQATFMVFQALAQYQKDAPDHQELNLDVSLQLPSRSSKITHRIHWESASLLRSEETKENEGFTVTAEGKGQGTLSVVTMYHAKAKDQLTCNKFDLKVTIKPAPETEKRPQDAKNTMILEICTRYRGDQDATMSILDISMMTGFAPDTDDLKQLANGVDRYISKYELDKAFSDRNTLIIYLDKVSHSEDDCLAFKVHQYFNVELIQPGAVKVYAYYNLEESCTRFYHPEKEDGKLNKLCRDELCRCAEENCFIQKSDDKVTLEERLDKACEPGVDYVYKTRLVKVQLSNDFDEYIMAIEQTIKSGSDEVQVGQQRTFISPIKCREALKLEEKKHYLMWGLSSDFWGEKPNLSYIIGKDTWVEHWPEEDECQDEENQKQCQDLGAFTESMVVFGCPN
Experiment: cell-based or functional assay
property_label: EC50 of hC3 cleavage (nM)
Output spec: scalar in nM, unitless text.

Some binders with known EC50 of hC3 cleavage results, for comparison:
MTSP-1 Q38H/I41A/F60eA/Y60gW/ins97aE/F97T/T98G/F99L/C122S/Q175L/Q192E (enzyme) VVGGTDADEGEWPWQVSLHALGHGHACGASLISPNWLVSAAHCYIDDRGARWSDPTQWTAFLGLHDQSQRSAPGVQERRLKRIISHPFFNDTEGLDYDIALLELEKPAEYSSMVRPISLPDASHVFPAGKAIWVTGWGHTQYGGTGALILQKGEIRVINQTTCENLLPQLITPRMMCVGFLSGGVDSCEGDSGGPLSSVEADGRIFQAGVVSWGDGCAQRNKPGVYTRLPLFRDWIKENTGV
5.93
MTSP-1 Q38H/I41A/D60bV/F60eR/Y60gW/D96Y/ins97aI/F97E/T98N/F99M/C122S/G151N/Q175L/Q192V (enzyme) VVGGTDADEGEWPWQVSLHALGHGHACGASLISPNWLVSAAHCYIDVRGRRWSDPTQWTAFLGLHDQSQRSAPGVQERRLKRIISHPFFNYEINMDYDIALLELEKPAEYSSMVRPISLPDASHVFPAGKAIWVTGWGHTQYGGTNALILQKGEIRVINQTTCENLLPQLITPRMMCVGFLSGGVDSCVGDSGGPLSSVEADGRIFQAGVVSWGDGCAQRNKPGVYTRLPLFRDWIKENTGV
4.36

Let us move to another entry and its EC50 of hC3 cleavage.
[ask] Which EC50 of hC3 cleavage value is on record for MTSP-1 Q38H/I41S/D60bT/F93S/ins97aV/F97D/T98P/F99L/C122S/I136L/Q192G/D217A (enzyme) VVGGTDADEGEWPWQVSLHALGHGHSCGASLISPNWLVSAAHCYIDTRGFRYSDPTQWTAFLGLHDQSQRSAPGVQERRLKRIISHPSFNDDVPLDYDIALLELEKPAEYSSMVRPISLPDASHVFPAGKALWVTGWGHTQYGGTGALILQKGEIRVINQTTCENLLPQQITPRMMCVGFLSGGVDSCGGDSGGPLSSVEADGRIFQAGVVSWGAGCAQRNKPGVYTRLPLFRDWIKENTGV ?
[reply] 37
